Hello, the source for this data is patent US12077503B2, in case you need it.

What pest or weed control at 500 g/ha was measured for each of the following?
- System: barnyardgrass (Echinochloa crus-galli)
- assay_info: Test A postemergence
- Type: in vivo
- condition_notes: Echinochloa crus-galli, post-emergence, 240 h, 500 g ai/ha, postemergence; visual injury, 0 to 100 scale (0 no effect, 100 complete control), approx. 10 d; read-out: Plant response rating, Barnyardgrass
Enter the number, and then the unit.

// query I'd like to know its pest or weed control at 500 g/ha. The compound in question is Cc1cc([C@H]2CN(C)C(=O)[C@@H]2C(=O)Nc2cccc(F)c2F)cc(C)c1Br
// result 90%

// query Follow-up entry: O=C(Nc1ccccc1C(F)(F)F)[C@H]1C(=S)NC[C@@H]1c1ccc(C(F)(F)F)cc1 (racemic)
// result 50%

// query Continue with Cc1ccc([C@H]2CN(C)C(=O)[C@@H]2C(=O)Nc2cccc(F)c2F)cc1Cl
// result 90%

// query // same read-out, input: Cc1cc([C@H]2CNC(=O)[C@@H]2C(=O)Nc2ccccc2F)ccc1C(F)(F)F
// result 90%

// query Request: Cc1ccc([C@H]2CNC(=O)[C@@H]2C(=O)Nc2cccc(F)c2F)cc1C
// result 90%

---

- Tested on: pigweed (Amaranthus retroflexus)
- assay_info: Test C preemergence
- Assay type: in vivo
- condition_notes: 62 g ai/ha, scale 0 to 100, 0 no effect, 100 complete control
- From the text: […]
property: Plant response rating, Pigweed
Lab note: record the figure alone, no unit after it.

// query I have this molecule here, O=C1NCC(c2cccc(C(F)(F)F)c2F)C1C(=O)Nc1cccc(F)c1F (stereo not shown) , and I need its recorded Plant response rating, Pigweed.
// result 45

// query Further, for CN1CC(c2cccc(OC(F)(F)C(F)F)c2)C(C(=O)Nc2cccc(F)c2F)C1=O (stereo not shown) ?
// result 80

// query Okay, and CC(C)Oc1cccc(C2CN(C)C(=O)C2C(=O)Nc2cccc(F)c2F)c1 (stereo not shown) ?
// result 40

// query Proceed to CN1CC(c2ccc(F)c(C(F)(F)F)c2)C(C(=O)Nc2ccccc2S(C)(=O)=O)C1=O (stereo not shown)
// result 80

---

Kindly supply the reported pest or weed control at 500 g/ha values for the records listed here.
- Test system: Kochia (Kochia scoparia)
- assay_info: Test A preemergence
- Type: in vivo
- condition_notes: Bassia scoparia, pre-emergence, 240 h, 500 g ai/ha, preemergence; visual injury rating about 10 d after treatment, 0 to 100 scale (0 no effect, 100 complete control); read-out: Kochia plant response rating

// query Can you share its pest or weed control at 500 g/ha? I mean this molecule: Cc1ccc([C@H]2CN(C)C(=O)[C@@H]2C(=O)Nc2ccccc2[S+](C)[O-])cc1F (single isomer, unassigned)
// result 60%

// query And then CN1C[C@H](c2cc(F)cc(C(F)(F)F)c2)[C@@H](C(=O)Nc2ccc(F)c(F)c2F)C1=O , what is it?
// result 50%

// query One more molecule: Cc1cc([C@H]2CN(C)C(=O)[C@@H]2C(=O)Nc2ccc(F)cc2F)ccc1Br
// result 60%

// query Moving on to CN1CC[C@H](c2ccc(OC(F)(F)F)cc2)[C@@H](C(=O)Nc2cccc(F)c2F)C1=O
// result 20%

// query Field entry: Cc1ccc([C@H]2CNC(=O)[C@@H]2C(=O)Nc2cccc(F)c2F)cc1C
// result 70%

// query # repeat for Cc1ccc([C@H]2CNC(=S)[C@@H]2C(=O)Nc2cccc(F)c2F)cc1 (racemic)
// result 50%
